# ASSAY_TARGET: human recombinant IL-21 (expressed in E. coli as the mature peptide); residues 30-162 of SEQ ID NO: 1 with an … (human, UniProt Q9HBE4 30-162)
# Sequence (Q9HBE4 other isoform, or with tags, fused parts or gaps): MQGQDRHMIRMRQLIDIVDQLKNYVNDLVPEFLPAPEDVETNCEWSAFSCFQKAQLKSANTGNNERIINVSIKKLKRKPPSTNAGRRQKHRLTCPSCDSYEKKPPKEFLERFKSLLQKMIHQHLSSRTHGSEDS
# PROTOCOL_SUMMARY: cell-based or functional assay
TEST_READOUT: Bioactivity as % of RM (mAb37), NK-92 assay (alamarBlue)

# input binder: mAb65 (mAb37 variant, light chain D30E) (antibody, human IgG4 S228P, kappa, V domains shown, Human IgG4(S241P), kappa) VH: EVQLVESGGGLVKPGGSLRLSCAASGFIFSSYSMNWVRQAPGKGLEWVSSITSGSYYIHYADSVKGRFTISRDNAKNSLYLQMNSLRAEDTAVYYCVRERGWGYYGMDVWGQGTTVTVSS VL: AIQLTQSPSSLSASVGDRVTITCRASQDIESALAWYQQKPGKAPKILIHDASSLESGVPSRFSGSGSGTDFTLTISSLQPEDFATYYCQQFNSYPYTFGQGTKLEIKR ; wanted: its Bioactivity as % of RM (mAb37), NK-92 assay (alamarBlue)
96.8 % of RM (mAb37)
